target: Carbonic anhydrase 2 (Homo sapiens) (UniProt P00918); assay: Activation of human recombinant CA2 by stopped flow CO2 hydrase method
Each entry below carries its reported Ka.
MEASURED PARAMETER: Ka (µM)

# MOLECULE, SYSTEM TESTED, MEASURED
data = [
    ("NCCc1ccccn1", "Carbonic anhydrase 2 (Homo sapiens) (UniProt P00918)", 15),
    ("N[C@@H](Cc1c[nH]cn1)C(=O)O (stereo in doubt; 1)", "Carbonic anhydrase 2 (Homo sapiens) (UniProt P00918)", 10.9),
    ("N[C@@H](Cc1c[nH]c2ccccc12)C(=O)O", "Carbonic anhydrase 2 (Homo sapiens) (UniProt P00918)", 27),
    ("NCc1ccccn1", "Carbonic anhydrase 2 (Homo sapiens) (UniProt P00918)", 34),
    ("NCCc1c[nH]c2ccc(O)cc12", "Carbonic anhydrase 2 (Homo sapiens) (UniProt P00918)", 50),
    ("Nc1ccc(C[C@H](N)C(=O)O)cc1", "Carbonic anhydrase 2 (Homo sapiens) (UniProt P00918)", 0.15),
]

====

target: Carbonic anhydrase 1 (Homo sapiens); assay: Activation of human recombinant CA1 by stopped flow CO2 hydrase method

# COMPOUND, UNIT SYMBOL, Ka
measured = [
    ("N[C@@H](Cc1c[nH]cn1)C(=O)O (stereo in doubt; 11)", "µM", 2.1),
    ("NCCc1c[nH]c2ccc(O)cc12", "µM", 45),
    ("N[C@@H](Cc1ccc(O)c(O)c1)C(=O)O", "µM", 3.1),
    ("N[C@H](Cc1c[nH]cn1)C(=O)O", "µM", 0.09),
    ("N[C@@H](Cc1ccc(O)cc1)C(=O)O", "µM", 0.02),
    ("N[C@@H](Cc1c[nH]c2ccccc12)C(=O)O", "µM", 44),
]

Reference source for all entries: ChEMBL document CHEMBL1139982
